Tested on: human PKK mRNA
Experiment: Dose-dependent antisense inhibition of human PKK in HepaRG cells, 0.19-5.00 uM (Example 5)
Assay type: cell-based
Conditions: 4 point dose response, HepaRG cells; Table 41
Strand notation (5' to 3'): a small letter for the sugar, then the base; units joined by * are phosphorothioate-linked, units joined directly phosphodiester-linked; [ ] holds rarer units or linkages, { } end groups; capitals alone tell only the bases. e = 2'-O-(2-methoxyethyl) (MOE); [5mC] = 5-methylcytosine; d = 2'-deoxy (DNA)
I'd appreciate it if you could supply IC50 values for the items below.
The answer is to be given in nM; state only the numeric part.

Q. Can you look up the measured IC50 of 546846 (e[5mC]*eT*eG*eT*e[5mC]*d[5mC]*dT*dA*dT*dA*dT*d[5mC]*dA*d[5mC]*dT*eG*eT*e[5mC]*e[5mC]*eT; antisense) [compound 546846] for me?
A. 500

Q. Can you look up the measured IC50 of 547602 (antisense eT*e[5mC]*eA*e[5mC]*eT*dG*dT*dA*d[5mC]*d[5mC]*dT*dA*dT*dA*dA*e[5mC]*eT*e[5mC]*eT*eA) [compound 547602] for me?
A. 1400

Q. Can you look up the measured IC50 of 546825 (eG*eT*eA*eT*e[5mC]*dA*d[5mC]*dT*dG*dT*dA*d[5mC]*dT*dA*dG*eT*eT*eT*e[5mC]*e[5mC]; antisense) [compound 546825] for me?
A. 200

Q. Can you look up the measured IC50 of 546827 (e[5mC]*eA*eG*eT*eA*dT*d[5mC]*dA*d[5mC]*dT*dG*dT*dA*d[5mC]*dT*eA*eG*eT*eT*eT; antisense) [compound 546827] for me?
A. 400

Q. Can you look up the measured IC50 of 531231 (eT*eA*eT*e[5mC]*eA*d[5mC]*dT*dG*dT*dA*d[5mC]*dT*dA*dG*dT*eT*eT*e[5mC]*e[5mC]*eT) [compound 531231] for me?
A. 500

* * *

Test system: human PKK mRNA
Test: Dose-dependent antisense inhibition of human PKK in HepaRG cells, 0.12-10.00 uM (Example 4)
Assay type: cell-based
Details: Table 33, PKK mRNA, electroporation, ~16 h
Strand notation (5' to 3'): a small letter for the sugar, then the base; units joined by * are phosphorothioate-linked, units joined directly phosphodiester-linked; [ ] holds rarer units or linkages, { } end groups; capitals alone tell only the bases. e = 2'-O-(2-methoxyethyl) (MOE); [5mC] = 5-methylcytosine; d = 2'-deoxy (DNA)
Kindly apply the following: Y if IC50 is less than 0.9 µM, N in every other case.

Q. hey, is IC50 for 531231 (eT*eA*eT*e[5mC]*eA*d[5mC]*dT*dG*dT*dA*d[5mC]*dT*dA*dG*dT*eT*eT*e[5mC]*e[5mC]*eT) [compound 531231] lower than 0.9 µM or not?
A. N

Q. hey, is IC50 for 531026 (antisense eA*eT*e[5mC]*eA*eT*dG*dA*dT*dT*d[5mC]*d[5mC]*d[5mC]*dT*dT*d[5mC]*eT*eG*eA*eG*eA) [compound 531026] lower than 0.9 µM or not?
A. N

Q. hey, is IC50 for 531110 (antisense eG*e[5mC]*e[5mC]*eT*eG*dT*dT*dT*dG*dG*dT*dG*dG*dT*d[5mC]*eT*e[5mC]*eT*eT*e[5mC]) [compound 531110] lower than 0.9 µM or not?
A. N

Q. hey, is IC50 for 531071 (e[5mC]*eT*eG*e[5mC]*eT*d[5mC]*dT*dG*dT*dG*dT*dT*dT*dT*d[5mC]*eT*e[5mC]*eT*eA*eA; antisense) [compound 531071] lower than 0.9 µM or not?
A. Y
